Test system: Mammalian orthoreovirus 1
experiment.summary: Antiviral activity against Mammalian orthoreovirus 1 infected BHK21 cells assessed as inhibition of virus-induced cytopathogenicity after 3 to 4 days by MTT assay
Assay type: functional, organism-based
assay.conditions: Mammalian orthoreovirus 1, BHK-21
assay.endpoint: EC50

Use these answered entries as a reference point.
# compound, system.under.test, EC50
data = [
    ("O=C1C2=C(SCCS2)C(=O)N1CCCCN1CCN(c2ccccn2)CC1", "Mammalian orthoreovirus 1", "> 100 µM"),
    ("O=C1C2=C(SCCS2)C(=O)N1CCCCN1CCN(c2ccccc2)CC1", "Mammalian orthoreovirus 1", "> 100 µM"),
]

Print Mammalian orthoreovirus 1 EC50 for O=C1C2=C(SCCS2)C(=O)N1CCCCN1CCN(Cc2ccccc2)CC1 .
> 100 µM

State EC50 (Mammalian orthoreovirus 1) of O=C1C2=C(SCCS2)C(=O)N1CC(O)CN1CCN(c2ccc(F)cc2)CC1 (configuration not stated) .
> 100 µM

Provide EC50, system Mammalian orthoreovirus 1, entry COc1ccccc1N1CCN(CC(O)CN2C(=O)C3=C(SCCS3)C2=O)CC1 (configuration not stated)
> 100 µM

Give EC50; test system Mammalian orthoreovirus 1; compound O=C1C2=C(SCCS2)C(=O)N1CCCCN1CCN(c2ccc(F)cc2)CC1
> 100 µM

# lookup: Mammalian orthoreovirus 1 EC50, key = O=C1C2=C(SCCS2)C(=O)N1CCCN1CCN(c2ccc(F)cc2)CC1
> 100 µM
